What follows is a collection of AC50 values obtained with Cytochrome P450 2D6 (Homo sapiens, UniProt P10635).
Sequence (P10635 whole entry): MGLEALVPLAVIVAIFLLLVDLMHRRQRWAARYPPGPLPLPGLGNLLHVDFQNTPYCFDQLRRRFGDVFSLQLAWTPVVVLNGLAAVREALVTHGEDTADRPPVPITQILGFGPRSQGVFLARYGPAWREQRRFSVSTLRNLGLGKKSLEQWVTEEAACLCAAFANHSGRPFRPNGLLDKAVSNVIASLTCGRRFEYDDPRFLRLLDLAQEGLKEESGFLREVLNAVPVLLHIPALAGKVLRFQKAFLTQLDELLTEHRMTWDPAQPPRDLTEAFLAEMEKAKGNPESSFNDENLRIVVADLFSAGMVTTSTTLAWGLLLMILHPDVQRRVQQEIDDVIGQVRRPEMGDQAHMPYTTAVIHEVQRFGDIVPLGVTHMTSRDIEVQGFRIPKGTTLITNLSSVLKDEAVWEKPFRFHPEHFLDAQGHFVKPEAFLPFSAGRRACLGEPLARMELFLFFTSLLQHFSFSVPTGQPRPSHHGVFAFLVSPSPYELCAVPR

>  <Compound>
CCCC(c1cc(C(C)(C)C)c(O)cc1C)c1cc(C(C)(C)C)c(O)cc1C

>  <Target Or Test System>
Cytochrome P450 2D6 (Homo sapiens, UniProt P10635);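 further: CYP2D6 member of a cytochrome P450 panel assay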

>  <AC50>
3.98 µM (inconclusive)

$$$$

[Q] Any idea what AC50 was measured for `Cc1ccc(C(=O)c2c[nH]nc2-c2cc(Cl)ccc2O)cc1` ?
[A] 28.2 µM (inconclusive)

----------
# Target Or Test System: Coagulation factor XII (Homo sapiens, UniProt P00748);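 further: activated factor XIIa alpha cleaving a fluorogenic AMC peptide substrate; inhibitor potency from loss of enzyme activity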
# Sequence (P00748 whole entry): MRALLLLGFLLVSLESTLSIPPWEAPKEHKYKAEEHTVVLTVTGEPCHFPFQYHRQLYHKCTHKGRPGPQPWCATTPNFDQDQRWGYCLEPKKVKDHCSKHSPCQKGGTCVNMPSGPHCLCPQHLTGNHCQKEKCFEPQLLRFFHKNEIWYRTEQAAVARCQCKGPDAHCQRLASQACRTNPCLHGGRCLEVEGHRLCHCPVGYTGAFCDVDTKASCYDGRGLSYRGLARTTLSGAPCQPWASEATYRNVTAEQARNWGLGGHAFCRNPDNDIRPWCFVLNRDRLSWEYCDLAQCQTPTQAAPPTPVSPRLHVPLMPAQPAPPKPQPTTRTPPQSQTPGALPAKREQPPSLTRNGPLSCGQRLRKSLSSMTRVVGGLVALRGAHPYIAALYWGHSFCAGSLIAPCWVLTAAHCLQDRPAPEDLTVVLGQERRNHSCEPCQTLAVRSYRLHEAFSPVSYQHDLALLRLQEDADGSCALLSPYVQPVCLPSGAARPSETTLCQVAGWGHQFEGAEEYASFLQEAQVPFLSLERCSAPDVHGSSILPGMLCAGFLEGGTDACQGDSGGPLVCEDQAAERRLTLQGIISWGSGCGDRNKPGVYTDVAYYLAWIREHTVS
# Assay type: functional
The source made the active and inactive calls.
Thanks in advance; please answer with one of these: y = active, n = inactive

These recorded examples may help you get a feel for the data.
>  <Compound>
CCc1c(C)nc(N)nc1N1N=C1SCC#N

>  <Assigned Label>
n

$$$$
>  <Compound>
Cc1cc(C(C#N)c2cccc(Cl)c2)n2ncnc2n1 (centres undefined)

>  <Assigned Label>
n

$$$$
>  <Compound>
Cc1c(C(=O)N(Cc2ccccc2)Cc2cccs2)cnn1-c1ccc(Cl)cc1

>  <Assigned Label>
n

$$$$

Please look at the following compound next.
[Q] Record request — test call for `COc1ccc(C(=O)ON=C2C=C(C)C(=O)C(C)=C2)cc1`
[A] y

----------
The following compounds are listed with their measured EC50 values.
# Tested on: BJ
# Run Description: BJ-TERT fibroblast viability loss – cell-based, RAS-independent, luminescence, dose response (AID 1933)
# Type: functional
# Settings: Homo sapiens
Calls of active or inactive are those of the source.

>  <Item Smiles>
O=[N+]([O-])c1c(Nc2cccc(O)c2)cc(Cl)c2nonc12

>  <EC50>
2.6 µM (active)

$$$$
>  <Item Smiles>
COc1cc(C(=O)Nc2ccc(C)cc2)c2ccccc2n1

>  <EC50>
1.15 µM (inconclusive)

$$$$
>  <Item Smiles>
COc1ccc(NC(=O)c2cc([N+](=O)[O-])ccc2O)cc1

>  <EC50>
9.48 µM (active)

$$$$

Now for a further compound.
[Q] Which value of EC50 has been reported for `O=C(c1ccc(Br)cc1)c1cc([N+](=O)[O-])ccc1N1CCOCC1` in the records?
[A] 7.48 µM (active)

----------
IC50 for assorted compounds
# System: HEK293
# Run Description: cells
# Type: functional, cell-based
# Settings: Homo sapiens
The source made the active and inactive calls.

These solved cases illustrate the format of a correct answer.
>  <Compound>
COc1ccccc1N1CCN(c2ncc(C(=O)N3CCN(c4cccc(Cl)c4)CC3)c3ccccc23)CC1

>  <Measured Endpoint>
IC50

>  <Result>
5.68 µM (active)

$$$$
>  <Compound>
CCCc1nc(SCC(=O)Nc2nnc(SCC)s2)c2c(=O)n(C)c(=O)n(C)c2n1

>  <Measured Endpoint>
IC50

>  <Result>
7.04 µM (active)

$$$$
>  <Compound>
CCC(=O)Nc1nc2ccccc2n1Cc1ccccc1Cl

>  <Measured Endpoint>
IC50

>  <Result>
> 20 µM (inactive)

$$$$
>  <Compound>
Cc1oc(-c2cc(F)ccc2F)nc1CN1CCN(c2ncnc3ccccc23)CC1

>  <Measured Endpoint>
IC50

>  <Result>
11.1 µM (active)

$$$$

[Q] Please report the recorded IC50 for CCCOC(=O)c1[nH]c2c(c1C)C(=O)CC(c1cc(OC)c(OC)c(OC)c1)C2 (stereo not given) .
[A] 6.21 µM (active)

----------
# Target Or Test System: Genome polyprotein (dengue virus type 2, UniProt P29990)
# Run Description: flavivirus cap methylation enzyme inhibition – biochemical, confirmation dose response, primary screen (AID 588689)
# Type: functional
Calls of active or inactive are those of the source.
Recorded measurements of IC50, one per entry

[Q] Bench note: what IC50 did `O=[N+]([O-])c1c(Nc2cccc(O)c2)cc(Cl)c2nonc12` show?
[A] 26.2 µM (active)

[Q] And `CSc1nc(S)c2[nH]c(S)nc2n1` ?
[A] 30.6 µM (active)

[Q] Query `O=[N+]([O-])c1c(Nc2ccccn2)cc(Cl)c2nonc12` next
[A] 20 µM (active)

[Q] Ok, now `CC(=O)Nc1cc(OC(C)=O)c2nonc2c1OC(C)=O`
[A] 38 µM (active)

[Q] Also check `COc1cc(/C=C2/SC(NS(=O)(=O)c3ccccc3)=NC2=O)c([N+](=O)[O-])cc1OC`
[A] 45.8 µM (active)

----------
# Target Or Test System: Aminopeptidase N (Plasmodium falciparum FcB1/Columbia)
# Sequence (O96935 whole entry): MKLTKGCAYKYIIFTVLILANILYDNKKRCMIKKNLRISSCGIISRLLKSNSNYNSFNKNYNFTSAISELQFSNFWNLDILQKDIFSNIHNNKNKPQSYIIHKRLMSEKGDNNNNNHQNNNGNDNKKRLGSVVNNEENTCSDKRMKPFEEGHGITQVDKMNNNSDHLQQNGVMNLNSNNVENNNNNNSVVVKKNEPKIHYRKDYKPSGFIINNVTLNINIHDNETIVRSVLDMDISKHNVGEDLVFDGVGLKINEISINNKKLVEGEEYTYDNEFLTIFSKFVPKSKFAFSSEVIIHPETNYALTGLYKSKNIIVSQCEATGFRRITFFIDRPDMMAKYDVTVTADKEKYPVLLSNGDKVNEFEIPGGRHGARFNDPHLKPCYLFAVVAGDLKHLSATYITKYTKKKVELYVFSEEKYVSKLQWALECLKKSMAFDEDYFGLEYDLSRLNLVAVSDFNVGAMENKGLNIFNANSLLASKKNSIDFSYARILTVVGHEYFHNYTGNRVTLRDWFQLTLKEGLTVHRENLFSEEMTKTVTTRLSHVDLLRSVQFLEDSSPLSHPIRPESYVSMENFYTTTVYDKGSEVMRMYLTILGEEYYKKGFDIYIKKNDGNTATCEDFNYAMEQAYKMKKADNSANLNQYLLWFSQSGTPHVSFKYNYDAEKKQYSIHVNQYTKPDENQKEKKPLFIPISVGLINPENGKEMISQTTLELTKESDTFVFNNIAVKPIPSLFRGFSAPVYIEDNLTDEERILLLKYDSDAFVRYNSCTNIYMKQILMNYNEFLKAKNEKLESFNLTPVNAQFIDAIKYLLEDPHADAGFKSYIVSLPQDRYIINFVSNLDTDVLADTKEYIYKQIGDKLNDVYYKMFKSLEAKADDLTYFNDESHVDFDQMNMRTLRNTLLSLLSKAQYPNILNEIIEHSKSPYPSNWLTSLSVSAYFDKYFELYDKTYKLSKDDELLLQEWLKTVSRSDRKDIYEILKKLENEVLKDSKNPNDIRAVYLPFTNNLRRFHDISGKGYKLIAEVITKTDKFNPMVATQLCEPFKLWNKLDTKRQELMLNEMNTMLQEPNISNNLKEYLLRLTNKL
# Run Description: malaria alanyl aminopeptidase activity blockers – biochemical, fluorogenic H-Leu-NHMec substrate, 1536-well (AID 1445)
# Parameters: species or system Plasmodium falciparum 3D7, 3D7
Active and inactive are the calls of the source.
Measured Endpoint: IC50

[Q] Would you mind telling me what IC50 value was observed for `Cc1ccc(S(=O)(=O)N(C)C)cc1NC(=O)Nc1c(-c2ccccc2)noc1C` ?
[A] 12.9 µM (active)

[Q] Item: `COc1cc(/C=C2/SC(NS(=O)(=O)c3ccccc3)=NC2=O)c([N+](=O)[O-])cc1OC`
[A] 24.1 µM (active)

----------
// reported EC50 per item
# Target Or Test System: Streptokinase A (Streptococcus pyogenes serotype M1, UniProt P10520)
# Sequence (P10520 whole entry): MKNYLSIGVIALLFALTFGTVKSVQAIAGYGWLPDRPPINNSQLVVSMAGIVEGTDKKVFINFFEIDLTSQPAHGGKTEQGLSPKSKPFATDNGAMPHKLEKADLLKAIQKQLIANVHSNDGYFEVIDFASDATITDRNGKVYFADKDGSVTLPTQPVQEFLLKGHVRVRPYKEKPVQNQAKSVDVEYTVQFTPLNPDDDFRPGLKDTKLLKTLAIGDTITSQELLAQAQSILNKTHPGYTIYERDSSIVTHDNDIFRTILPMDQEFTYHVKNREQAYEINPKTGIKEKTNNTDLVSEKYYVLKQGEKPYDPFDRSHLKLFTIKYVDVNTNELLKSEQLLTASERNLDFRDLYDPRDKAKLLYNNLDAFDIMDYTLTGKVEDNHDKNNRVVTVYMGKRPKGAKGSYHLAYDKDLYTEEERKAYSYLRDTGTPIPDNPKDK
# Run Description: viability-normalized secreted streptokinase activity reduction – plasminogen activation absorbance, OD405, dose response (AID 1914);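 further: secreted streptokinase activity via plasminogen activation per viability signal from cell pellet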
# Format: functional, Streptococcus pyogenes M1 GAS
Calls of active or inactive are those of the source.

Known results for molecules:
>  <Molecule>
Cc1ccc2c(Cl)cc(Cl)c(OCC(=O)NC(C)(C)C)c2n1

>  <Target Or Test System>
Streptokinase A (Streptococcus pyogenes serotype M1, UniProt P10520)

>  <Result>
> 150 µM (not active)

$$$$
>  <Molecule>
CCC1(C)Cc2c(sc3nc(SC)nc(S)c23)CO1 (stereo not given)

>  <Target Or Test System>
Streptokinase A (Streptococcus pyogenes serotype M1, UniProt P10520)

>  <Result>
> 150 µM (not active)

$$$$
>  <Molecule>
CC(C)(C)c1cc(NCc2ccccn2)n2ncc(-c3ccc(Cl)cc3)c2n1

>  <Target Or Test System>
Streptokinase A (Streptococcus pyogenes serotype M1, UniProt P10520)

>  <Result>
> 150 µM (not active)

$$$$
>  <Molecule>
Cc1ccc(C(c2cc(Cl)c3cccnc3c2O)N2CCN(C)CC2)cc1 (stereo not given)

>  <Target Or Test System>
Streptokinase A (Streptococcus pyogenes serotype M1, UniProt P10520)

>  <Result>
> 150 µM (not active)

$$$$
>  <Molecule>
CC(Oc1ccc(Cl)cc1Cl)C(=O)NC1=NN(c2ccccc2)C(=O)C1 (stereo not given)

>  <Target Or Test System>
Streptokinase A (Streptococcus pyogenes serotype M1, UniProt P10520)

>  <Result>
123 µM (inconclusive)

$$$$

[Q] Which EC50 value belongs to `CC(C)C[C@H](NC(=O)c1[nH]cnc1C(=O)NC1CCN(C(=O)OC(C)(C)C)CC1)C(=O)OCc1ccccc1` ?
[A] > 150 µM (not active)

[Q] What do you have for `O=[N+]([O-])c1c(Nc2cccc(O)c2)cc(Cl)c2nonc12` ?
[A] 5.58 µM (active)

[Q] Entry `CCC(=O)Nc1nc2ccccc2n1Cc1ccccc1Cl` please
[A] > 150 µM (not active)

[Q] And the next one, `COc1ccc(C(=O)NNC(=S)NC(=O)c2cccs2)cc1` ?
[A] > 150 µM (not active)

[Q] Can you handle `Cc1ccc(S(=O)(=O)/N=C2\C=C(Nc3cccc(C(=O)O)c3)C(=O)c3ccccc32)cc1` next?
[A] 47.3 µM (active)
